As shown below, each of these compounds has a reported Ki value.
- tested-on: Human α2δ-1 subunit of Cav2.2 calcium channel (Homo sapiens (Human), UniProt P54289)
- Sequence (P54289 25-1103): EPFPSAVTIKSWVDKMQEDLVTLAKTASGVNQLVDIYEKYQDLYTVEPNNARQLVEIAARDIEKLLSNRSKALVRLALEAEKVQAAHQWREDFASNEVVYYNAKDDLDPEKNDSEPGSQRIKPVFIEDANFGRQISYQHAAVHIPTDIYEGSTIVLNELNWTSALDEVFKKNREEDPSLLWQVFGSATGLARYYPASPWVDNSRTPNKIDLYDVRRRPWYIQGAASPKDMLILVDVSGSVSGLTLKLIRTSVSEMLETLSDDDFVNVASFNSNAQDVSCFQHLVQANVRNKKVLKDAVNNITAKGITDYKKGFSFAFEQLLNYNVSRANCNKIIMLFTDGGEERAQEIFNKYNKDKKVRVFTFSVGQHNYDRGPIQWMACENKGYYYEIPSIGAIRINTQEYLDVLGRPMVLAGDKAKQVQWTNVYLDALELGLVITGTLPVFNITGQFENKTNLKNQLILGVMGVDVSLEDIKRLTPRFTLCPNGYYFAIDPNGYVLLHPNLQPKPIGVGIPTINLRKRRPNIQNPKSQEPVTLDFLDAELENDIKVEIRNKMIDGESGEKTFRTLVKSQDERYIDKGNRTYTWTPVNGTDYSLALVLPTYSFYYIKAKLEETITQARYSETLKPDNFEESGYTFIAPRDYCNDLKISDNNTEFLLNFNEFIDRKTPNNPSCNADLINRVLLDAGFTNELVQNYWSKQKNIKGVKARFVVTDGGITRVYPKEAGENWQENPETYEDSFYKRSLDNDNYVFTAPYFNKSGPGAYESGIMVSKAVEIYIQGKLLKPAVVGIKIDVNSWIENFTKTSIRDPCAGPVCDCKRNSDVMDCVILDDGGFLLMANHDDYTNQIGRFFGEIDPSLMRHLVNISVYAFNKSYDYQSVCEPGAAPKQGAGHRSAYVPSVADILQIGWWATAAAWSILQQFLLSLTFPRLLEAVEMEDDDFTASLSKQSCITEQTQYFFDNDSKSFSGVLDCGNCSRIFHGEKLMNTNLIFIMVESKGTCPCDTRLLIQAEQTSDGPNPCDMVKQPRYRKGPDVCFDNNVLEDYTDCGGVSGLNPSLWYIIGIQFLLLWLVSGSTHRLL
- protocol-summary: Binding Assay to Human α2δ-1 Subunit of Cav2.2 Calcium Channel
- test-parameters: Table 1; human α2δ-1 enriched membranes, 15 nM [3H]-Gabapentin; read-out: Ki(nM) alpha2delta Hum

Supply measured Ki of CNCCC(Oc1ccc(CN2CCN(C)c3ccccc3C2=O)cc1)c1ccccc1 (stereo not drawn) in your reply.
> 3000 nM

New cases:
Give the reported value of Ki for this record: CCNC[C@@H]1CC(=O)N(c2cccc(O[C@@H](CCNC)c3cccs3)c2)CCN1C
500 to 3000 nM

Tell me measured Ki for CNCCC(OCc1cccc(N2CCCCCC2=O)c1)c1cccs1 (stereo not drawn) please.
500 to 3000 nM
